System: HPPD polypeptides (wild-type SEQ ID NO:1 and mutants)
Conditions: in the presence of Cmpd. 2, 15 μM inhibitor, high substrate concentration; total change in signal normalized to no inhibitor
We begin with a simple list: items and their reported Residual turnover.
State the answer as a number, implicitly in %.

Prompt: State the recorded Residual turnover for this entry: 14 (protein, mutant HPPD polypeptide) MADLYENPMGLMGFEFIEFASPTPGTLEPIFEIMGFTKVATHRSKNVHLYRQGEINLILNNEPNSIASYFAAEHGPSVCGMAFRVKDSQKAYNRALELGAQPIHIDTGPMELNLPAIKGIGGAPLYLIDRFGEGSSIYDIDFVYLEGVERNPVGAGLKVIDHLTHNVYRGRMVYWANFYEKLFNFREARYFDIKGEYTGLTSKAMSAPDGMIRIPLNEESSKGAGQIEEFLMQFNGEGIQHVAFLTDDLVKTWDALKKIGMRFMTAPPDTYYEMLEGRLPDHGEPVDQLQARGILLDGSSVEGDKRLLLQIFSETLMGPVFFEFIQRKGHDGFGPDSFKVLFESVERDQVRRGVLTAD
Response: 92
